- Tested on: SF-268 CNS
- Experiment summary: NCI tumour cell line growth inhibition, 48 h; in the data active = GI50 below about 0.43 µM; inactive = the rest
Outcome codes: active, inactive

Compound | Qualitative label
C=C(C)[C@@H]1CC[C@]2(C(=O)n3ccnc3)CC[C@]3(C)[C@H](CC[C@@H]4[C@@]5(C)CCCNC(C)(C)[C@@H]5CC[C@]43C)[C@@H]12 | inactive
N#Cc1cccc(C2C3=C(COC3=O)N(CCO)c3cc4c(cc32)CCC4)c1 (stereo unspecified) | active
CCc1c(C#N)c(SC(C(N)=O)c2ccccc2)nc(N2CCC(N)CC2)c1C#N (stereo unspecified) | inactive
O=C(Nc1cccc(-n2cc(-c3ccncc3)c(-c3ccc(O)c(Cl)c3)n2)c1)Nc1ccc(Cl)c(Cl)c1 | inactive
Nc1c(C(=O)Nc2ccccn2)sc2nc3c(cc12)CCCCCC3 | inactive
O=C(Nc1ccc(Br)cc1)Nc1cccc(Br)c1 | inactive

* * *

Below, each entry is listed with its recorded TGI.
- Tested on: CCRF-CEM leukemia
- Experiment summary: NCI tumour cell line growth inhibition, 48 h

Compound | Experimental target | TGI
CCOc1cc(/C=C/C(=O)CC(=O)/C=C/c2ccc(OC(=O)CNCCN(CC)CC)c(OCC)c2)ccc1OC(=O)CNCCN(CC)CC | CCRF-CEM leukemia | 1.66 µM
COc1cc2c(cc1OC)C(SC)C(=O)N(Cc1cccc(OC)c1OC)CC2 (stereo unspecified) | CCRF-CEM leukemia | > 55.6 µM
Cn1c(=O)n2n(c1=O)C(S(=O)c1ccccc1)C2 (stereo unspecified) | CCRF-CEM leukemia | > 100 µM
C=CC1(O)CCCC=C1COCc1ccccc1 (stereo unspecified) | CCRF-CEM leukemia | > 100 µM
COC1(c2ccccc2)NC(=S)NN=C1c1ccccc1 (stereo unspecified) | CCRF-CEM leukemia | > 100 µM
O=C(/C=C/c1ccc(Cl)cc1)c1ccc(Cl)s1 | CCRF-CEM leukemia | 83.7 µM
CCN(CC)Cc1cc(Nc2cc(C(F)(F)F)c(C#N)c3nc4ccccc4n23)ccc1O | CCRF-CEM leukemia | > 100 µM
O=C(O)c1ccccc1CC(Cc1ccccc1)C(=O)O (stereo unspecified) | CCRF-CEM leukemia | > 100 µM
Nc1nc2c(c(=O)[nH]1)NC(CCNc1ccc(C(=O)O)cc1)CN2 (stereo unspecified) | CCRF-CEM leukemia | > 100 µM
Cc1ccc2oc3c(ccc(=O)n3C)c(=O)c2c1 | CCRF-CEM leukemia | > 100 µM
C/C(=N\Nc1nc2ccccc2n1C)c1ccc2ccccc2n1 | CCRF-CEM leukemia | 1.67 µM

* * *

- Tested on: SF-539 CNS
- Experiment summary: NCI tumour cell line growth inhibition, 48 h

Compound | TGI
Cc1ccccc1CNc1c2ccccc2nc2ccccc12 | 4 µM
OC(c1cc(-c2ccc(Cl)cc2)nc2c(Cl)cccc12)C1CCCCN1 (stereo not given) | 3.15 µM
COc1cc(OC)c(/C=C/C(=O)c2c(N)cc(OC)cc2OC)c(OC)c1 | > 25.2 µM
O=C(/C=C\c1ccc(/C=C/C(=O)Nc2cccc(C3=NCCCN3)c2)cc1)Nc1cccc(C2=NCCCN2)c1 | > 100 µM
N/C(=N\N=C/c1cc([N+](=O)[O-])cc([N+](=O)[O-])c1O)NO | > 100 µM
Cc1cc(C)c(S(=O)(=O)N(CCCN)OCCCN)c(C)c1 | > 100 µM
CC(=O)Oc1ccc(/C=C/C(=O)NCCOC(=O)/C=C/c2ccc(OC(C)=O)c(OC(C)=O)c2)cc1OC(C)=O | > 100 µM
O=C1NC2=NN=C(c3ccc(Br)cc3)CN2NC12c1ccccc1-c1ccccc12 | > 100 µM
O=C(NN1C(=O)C(Cl)C1c1c(O)ccc2ccccc12)c1ccccc1O (stereo not given) | > 100 µM
Brc1ccc(-c2nc(-c3ccc(Br)cc3)n(-c3ccccc3)n2)cc1 | > 100 µM

* * *

- Test system: DU-145 prostate
- Experiment summary: NCI tumour cell line growth inhibition, 48 h; in the data active = GI50 below about 0.43 µM; inactive = the rest
Outcome codes: label 1 for active, label 0 for inactive

Compound | Qualitative label
N#Cc1cccc(C2C3=C(COC3=O)N(CCO)c3cc4c(cc32)CCC4)c1 (stereo unspecified) | label 1
CCN(CC)CCCNc1c2ccc(Cl)cc2nc2ccc(OC)cc12 | label 1
CCOC(=O)C1=C(C)N(Cc2ccc(Cl)cc2Cl)[C@]2(C#N)C(O)=C(Cl)C(Cl)=C(O)[C@]12C#N | label 0
Cc1ccc(C(=O)N2C/C(=C/c3ccccc3)C(=O)/C(=C/c3ccccc3)C2)cc1 | label 0
CCN(CCNc1ccc(C)c2sc3cc(Cl)ccc3c(=O)c12)CC(C)(C)O | label 0
Cc1ccc(NC2=CC(=O)C(=O)c3ccccc32)c(C)c1 | label 0
COc1ncc2cc1NS(=O)(=O)c1cccc(c1)C(=O)NCC1=CC=C(S1)c1ncnc3c1SC2=C3C | label 1
CC1(C)N=C(N)N=C(N)N1c1ccc(OCCCCNC(=O)Nc2cccc(S(=O)(=O)F)c2)c(Cl)c1 | label 0
CCN(CC)C(=S)SSCCO | label 0
O=S(=O)(NCCCNc1nccc(-c2c(-c3cccc(F)c3)nc3occn23)n1)c1cccc2ccccc12 | label 0
O=C(Nc1cccc(-n2cc(-c3ccncc3)c(-c3ccc(O)c(Cl)c3)n2)c1)Nc1ccc(Cl)c(Cl)c1 | label 0

* * *

- Tested on: UACC-257 melanoma
- Experiment summary: NCI tumour cell line growth inhibition, 48 h
Below, each entry is listed with its recorded TGI.

Structure string | Experimental target | TGI
CCOP(=O)(/C=C/n1cnc2c(=O)n(C(C)=O)c(N)nc21)OCC | UACC-257 melanoma | > 100 µM
Nc1nc(-c2ccccc2)cc(-c2cc(Cl)ccc2O)n1 | UACC-257 melanoma | > 100 µM
CCOP(=O)(/C=C\n1ccc(=O)[nH]c1=O)OCC | UACC-257 melanoma | > 100 µM
CC/C(=C(/c1ccc(/C=C/C(=O)O)cc1)c1ccc2[nH]ncc2c1)c1ccc(F)cc1Cl | UACC-257 melanoma | 43.2 µM
O=C1CC(=O)NC(=NN2C(=O)/C(=C/c3ccc(Cl)cc3)N=C2c2ccccc2)N1 | UACC-257 melanoma | 42 µM

* * *

- Tested on: SF-539 CNS
- Experiment summary: NCI tumour cell line growth inhibition, 48 h
Measurement label: TGI

Compound | Experimental target | Measurement label | Assay result
CC1=C2CC(C)(C)CC(=O)C2(C)CCC1=O (stereo unspecified) | SF-539 CNS | TGI | > 100 µM
CSC1(Cc2ccccn2)C(=O)Nc2cccc([N+](=O)[O-])c21 (stereo unspecified) | SF-539 CNS | TGI | > 100 µM
C=CC[PH+](c1ccccc1)c1ccccc1.C=CC[PH+](c1ccccc1)c1ccccc1.[Pt+2].[S-]c1ncccn1.[S-]c1ncccn1 | SF-539 CNS | TGI | 52.3 µM
CC(=O)OC1CC[C@@]2(C)C(=CC[C@@H]3[C@@H]2CC[C@]2(C)C(OC(C)=O)[C@H](n4ccnc4)C[C@@H]32)C1 (stereo partly specified) | SF-539 CNS | TGI | 29.8 µM
COc1cc(S(=O)(=O)Nc2ccc(-c3csc(/N=C\c4cccs4)n3)cc2)ccc1Cl | SF-539 CNS | TGI | > 100 µM
O/N=C1\CSc2ccccc2C1 | SF-539 CNS | TGI | > 100 µM
CCOC(=O)c1cc2cc(OCc3ccccc3)ccc2[nH]1 | SF-539 CNS | TGI | > 100 µM
Cn1c(=O)c(C(=O)NC23CC4CC(CC(C4)C2)C3)c(O)c2ccccc21 | SF-539 CNS | TGI | > 100 µM
O=C(Nc1ccc(Cl)c(Cl)c1)C1C(=O)N(c2ccc(Cl)c(Cl)c2)C(=O)/C1=N\O (stereo unspecified) | SF-539 CNS | TGI | > 100 µM
Cc1cc(OC(=O)c2c(C)cc(OC(=O)c3c(C)cc(O)cc3O)cc2O)cc(O)c1C(=O)O | SF-539 CNS | TGI | > 100 µM
CC1(CCCCO)C=CC(S(=O)(=O)c2ccccc2)CC1 (stereo unspecified) | SF-539 CNS | TGI | 20.2 µM
Clc1ccc(Cn2cc(/C=N/n3cnnc3)c3ccccc32)cc1 | SF-539 CNS | TGI | > 100 µM
CN(C)CCNC(=O)c1cccc2cc3ccc4ccccc4c3nc12 | SF-539 CNS | TGI | 0.39 µM
Nc1nc(-c2ccccc2)cc(-c2cc(Cl)ccc2O)n1 | SF-539 CNS | TGI | > 100 µM
CCN(CC)C(=S)S | SF-539 CNS | TGI | > 100 µM
CCOC(=O)C1=C(C)N(CC(C)C)C2(O)C(OC)CC(=O)C3C(=O)N(c4ccccc4)C(=O)C132 (stereo unspecified) | SF-539 CNS | TGI | > 100 µM
CCCCCC(/C=C/[C@@H]1[C@@H](C(O)CCCCCC(=O)OC)C(=O)C[C@H]1O[Si](C)(C)C(C)(C)C)OCOCCOC (stereo partly specified) | SF-539 CNS | TGI | 31 µM
CC1(C)OC2OC(COC(=O)C(c3ccccc3)c3ccccc3)C3OC(C)(C)OC3C2O1 (stereo unspecified) | SF-539 CNS | TGI | > 100 µM
COc1ccc(C(=O)/C=C/c2ccc(OCc3ccccc3)c(OC)c2)cc1OC | SF-539 CNS | TGI | 7.38 µM
COc1cccc2c1[C@H]1OC(=O)NC1CCCCC2 (stereo partly specified) | SF-539 CNS | TGI | > 100 µM
Nc1c(C(=O)c2ccccc2)nnc2ccccc12 | SF-539 CNS | TGI | 87.3 µM
